meta.source: ChEMBL document CHEMBL1125259

# targetEntity: Human immunodeficiency virus type 1 reverse transcriptase (Human immunodeficiency virus 1) (UniProt Q72547)
# protocolNotes: Compounds were evaluated for anti-RT activity at 0 days of culture
# Assay type: functional
Lab note: compare Activity (c.p.m. 50ul-1) with 20000, writing label 1 if less and label 0 if equal or more.

{"molecule": "Cc1cn([C@H]2C[C@H](N=[N+]=[N-])[C@@H](CO)O2)c(=O)[nH]c1=O", "labelValue": "label 1"}
{"molecule": "CCCCCCCCCCCCCCCCOP(=O)(OCCO[C@H]1O[C@H](CO)[C@@H](O)[C@H](O)[C@@H]1O)OCC1OC(n2cc(C)c(=O)[nH]c2=O)CC1N=[N+]=[N-] (some centres not stated)", "labelValue": "label 1"}
{"molecule": "CCCCCCCCCCCCCCCCOP(=O)(OC[C@H]1OC(O)[C@@H](O)[C@@H](O)[C@@H]1O)OC[C@H]1OC(n2cc(C)c(=O)[nH]c2=O)C[C@@H]1N=[N+]=[N-] (some centres not stated)", "labelValue": "label 1"}
{"molecule": "Cc1cn([C@H]2C[C@H](N=[N+]=[N-])[C@@H](COP(=O)(O)OC[C@H]3OC(O)[C@@H](O)[C@@H](O)[C@@H]3O)O2)c(=O)[nH]c1=O (some centres not stated)", "labelValue": "label 0"}
{"molecule": "Cc1cn([C@H]2C[C@H](N=[N+]=[N-])[C@@H](COP(=O)(O)OC[C@H]3OC(O)[C@H](O)[C@@H](O)[C@@H]3O)O2)c(=O)[nH]c1=O (some centres not stated)", "labelValue": "label 0"}
{"molecule": "Cc1cn([C@H]2C[C@H](N=[N+]=[N-])[C@@H](COP(=O)(O)OCCO[C@H]3O[C@H](CO)[C@@H](O)[C@H](O)[C@@H]3O)O2)c(=O)[nH]c1=O", "labelValue": "label 0"}
{"molecule": "CCCCCCCCCCCCCCCCOP(=O)(OC[C@H]1OC(O)[C@H](O)[C@@H](O)[C@@H]1O)OC[C@H]1OC(n2cc(C)c(=O)[nH]c2=O)C[C@@H]1N=[N+]=[N-] (some centres not stated)", "labelValue": "label 1"}

====

// reported Activity (c.p.m. 50ul-1) per item
# targetEntity: Human immunodeficiency virus type 1 reverse transcriptase (Human immunodeficiency virus 1)
# protocolNotes: Compound ability to inhibit the production of HIV reverse transcriptase (RT) in culture supernatant of CEM-CL13 on at 7 days at a concentration 0.2 uM
# Format: functional
metricName: Activity (c.p.m. 50ul-1)

{"compound": "CCCCCCCCCCCCCCCCOP(=O)(OCCO[C@H]1O[C@H](CO)[C@@H](O)[C@H](O)[C@@H]1O)OCC1OC(n2cc(C)c(=O)[nH]c2=O)CC1N=[N+]=[N-] (some centres not stated)", "metricName": "Activity (c.p.m. 50ul-1)", "reading": 3900}
{"compound": "CCCCCCCCCCCCCCCCOP(=O)(OC[C@H]1OC(O)[C@H](O)[C@@H](O)[C@@H]1O)OC[C@H]1OC(n2cc(C)c(=O)[nH]c2=O)C[C@@H]1N=[N+]=[N-] (some centres not stated)", "metricName": "Activity (c.p.m. 50ul-1)", "reading": 4500}
{"compound": "Cc1cn([C@H]2C[C@H](N=[N+]=[N-])[C@@H](COP(=O)(O)OC[C@H]3OC(O)[C@H](O)[C@@H](O)[C@@H]3O)O2)c(=O)[nH]c1=O (some centres not stated)", "metricName": "Activity (c.p.m. 50ul-1)", "reading": 1600}
{"compound": "Cc1cn([C@H]2C[C@H](N=[N+]=[N-])[C@@H](CO)O2)c(=O)[nH]c1=O", "metricName": "Activity (c.p.m. 50ul-1)", "reading": 1500}
{"compound": "CCCCCCCCCCCCCCCCOP(=O)(OC[C@H]1OC(O)[C@@H](O)[C@@H](O)[C@@H]1O)OC[C@H]1OC(n2cc(C)c(=O)[nH]c2=O)C[C@@H]1N=[N+]=[N-] (some centres not stated)", "metricName": "Activity (c.p.m. 50ul-1)", "reading": 4000}
{"compound": "Cc1cn([C@H]2C[C@H](N=[N+]=[N-])[C@@H](COP(=O)(O)OC[C@H]3OC(O)[C@@H](O)[C@@H](O)[C@@H]3O)O2)c(=O)[nH]c1=O (some centres not stated)", "metricName": "Activity (c.p.m. 50ul-1)", "reading": 3400}
{"compound": "Cc1cn([C@H]2C[C@H](N=[N+]=[N-])[C@@H](COP(=O)(O)OCCO[C@H]3O[C@H](CO)[C@@H](O)[C@H](O)[C@@H]3O)O2)c(=O)[nH]c1=O", "metricName": "Activity (c.p.m. 50ul-1)", "reading": 4400}
